Data origin: patent US5688938A

Molecular target: parathyroid cell calcium receptor (Bos taurus, UniProt P35384)
Sequence (P35384 21-1085 limits assumed): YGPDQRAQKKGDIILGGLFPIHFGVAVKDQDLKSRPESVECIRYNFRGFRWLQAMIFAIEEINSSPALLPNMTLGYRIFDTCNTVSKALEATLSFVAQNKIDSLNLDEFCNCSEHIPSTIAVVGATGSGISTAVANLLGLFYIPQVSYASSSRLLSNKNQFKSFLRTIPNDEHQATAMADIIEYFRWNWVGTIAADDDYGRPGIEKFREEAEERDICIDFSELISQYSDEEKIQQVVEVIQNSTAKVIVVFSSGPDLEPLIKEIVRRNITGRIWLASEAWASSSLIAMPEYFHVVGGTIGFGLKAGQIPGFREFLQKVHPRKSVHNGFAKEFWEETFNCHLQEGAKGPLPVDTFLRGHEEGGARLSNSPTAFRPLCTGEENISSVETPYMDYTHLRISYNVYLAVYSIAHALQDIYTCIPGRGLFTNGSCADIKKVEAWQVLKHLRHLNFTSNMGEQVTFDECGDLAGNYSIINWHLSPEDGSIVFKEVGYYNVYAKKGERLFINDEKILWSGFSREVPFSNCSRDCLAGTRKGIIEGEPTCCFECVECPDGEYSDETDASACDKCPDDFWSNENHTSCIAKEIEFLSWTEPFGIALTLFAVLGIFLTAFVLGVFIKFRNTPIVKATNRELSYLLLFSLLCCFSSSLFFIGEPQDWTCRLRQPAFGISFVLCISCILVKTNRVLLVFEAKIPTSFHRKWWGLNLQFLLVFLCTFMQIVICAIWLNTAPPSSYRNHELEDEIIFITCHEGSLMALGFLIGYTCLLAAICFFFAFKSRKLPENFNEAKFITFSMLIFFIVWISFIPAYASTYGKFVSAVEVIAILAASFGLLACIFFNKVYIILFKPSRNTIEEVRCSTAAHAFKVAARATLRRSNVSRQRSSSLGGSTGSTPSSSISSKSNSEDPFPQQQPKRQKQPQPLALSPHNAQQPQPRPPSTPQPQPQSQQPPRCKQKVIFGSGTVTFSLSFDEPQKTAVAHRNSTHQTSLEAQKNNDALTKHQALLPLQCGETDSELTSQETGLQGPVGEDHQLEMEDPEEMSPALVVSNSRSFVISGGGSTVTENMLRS
Assay: cell-based
Type: cell-based
Conditions: Table 8 (arylalkylamine calcimimetics); parathyroid cell calcium receptor; read-out: EC50
pEC50: −log10 of the molar value.
Quick rule for you: pEC50 at 6 or higher means 1, lower means 0.

Example results:
COMPOUND	QUALITATIVE_LABEL
C[C@@H](NCc1ccc2c(c1)OCCO2)c1cccc2ccccc12 [Compound 13X]	1
COc1cccc(C(C)NC(C)CCc2ccccc2)c1 (centres unmarked) [Compound 20R]	0
C[C@@H](NCc1ccc2c(c1)OCO2)c1cccc2ccccc12 [Compound 16R]	1
COc1cccc(C(C)NC(C)c2cccc3ccccc23)c1 (centres unmarked)	0
CCOC(=O)COc1cccc([C@@H](C)NCc2ccc3ccccc3c2)c1 [Compound 11D]	0
CCOc1ccc(CN[C@H](C)c2cccc3ccccc23)cc1 [Compound 16W]	1
C[C@H](CCc1ccccc1)N[C@H](C)c1cccc2ccccc12 [Compound 21F]	1
COc1cccc([C@@H](C)NCCCc2ccc(F)cc2)c1	0

Say whether CSc1ccc(CN[C@H](C)c2cccc3ccccc23)cc1 [Compound 16X] shows pEC50 of 6 or more. 1

Say whether CCOc1cccc([C@@H](C)NCCCc2ccccc2Cl)c1 shows pEC50 of 6 or more. 0

Say whether COc1ccc([C@@H](C)N[C@H](C)c2cccc3ccccc23)cc1Cl [Compound 17X] shows pEC50 of 6 or more. 1
